Target: PI3K isoform δ (Homo sapiens (Human))
Sequence (O00329 whole entry, canonical isoform): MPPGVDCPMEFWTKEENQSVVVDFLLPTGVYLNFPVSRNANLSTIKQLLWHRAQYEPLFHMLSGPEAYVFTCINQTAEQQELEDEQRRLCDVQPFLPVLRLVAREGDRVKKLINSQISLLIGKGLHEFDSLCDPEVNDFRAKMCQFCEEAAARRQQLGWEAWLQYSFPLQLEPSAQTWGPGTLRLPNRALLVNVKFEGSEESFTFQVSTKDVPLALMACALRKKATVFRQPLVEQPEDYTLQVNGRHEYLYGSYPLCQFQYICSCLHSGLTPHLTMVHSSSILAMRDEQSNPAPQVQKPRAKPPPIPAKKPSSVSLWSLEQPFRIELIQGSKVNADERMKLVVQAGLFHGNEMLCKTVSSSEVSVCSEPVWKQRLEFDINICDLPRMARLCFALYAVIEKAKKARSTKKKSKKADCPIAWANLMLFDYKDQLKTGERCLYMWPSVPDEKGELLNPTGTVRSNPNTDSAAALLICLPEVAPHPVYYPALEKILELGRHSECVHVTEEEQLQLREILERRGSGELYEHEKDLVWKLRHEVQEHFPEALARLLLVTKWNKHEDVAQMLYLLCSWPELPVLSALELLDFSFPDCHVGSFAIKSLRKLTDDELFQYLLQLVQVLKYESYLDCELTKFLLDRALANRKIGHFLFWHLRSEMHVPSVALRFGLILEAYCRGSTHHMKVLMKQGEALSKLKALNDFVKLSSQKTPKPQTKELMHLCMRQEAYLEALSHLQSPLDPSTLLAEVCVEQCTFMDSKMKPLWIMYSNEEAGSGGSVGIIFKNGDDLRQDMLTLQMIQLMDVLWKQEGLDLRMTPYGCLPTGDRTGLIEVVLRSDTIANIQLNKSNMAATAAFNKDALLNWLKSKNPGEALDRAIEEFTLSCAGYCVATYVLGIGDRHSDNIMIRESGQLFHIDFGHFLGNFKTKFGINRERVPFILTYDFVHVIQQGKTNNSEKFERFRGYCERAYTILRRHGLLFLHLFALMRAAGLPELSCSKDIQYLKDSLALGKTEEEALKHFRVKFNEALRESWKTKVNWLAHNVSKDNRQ
Sequence (P27986 whole entry partner, canonical isoform): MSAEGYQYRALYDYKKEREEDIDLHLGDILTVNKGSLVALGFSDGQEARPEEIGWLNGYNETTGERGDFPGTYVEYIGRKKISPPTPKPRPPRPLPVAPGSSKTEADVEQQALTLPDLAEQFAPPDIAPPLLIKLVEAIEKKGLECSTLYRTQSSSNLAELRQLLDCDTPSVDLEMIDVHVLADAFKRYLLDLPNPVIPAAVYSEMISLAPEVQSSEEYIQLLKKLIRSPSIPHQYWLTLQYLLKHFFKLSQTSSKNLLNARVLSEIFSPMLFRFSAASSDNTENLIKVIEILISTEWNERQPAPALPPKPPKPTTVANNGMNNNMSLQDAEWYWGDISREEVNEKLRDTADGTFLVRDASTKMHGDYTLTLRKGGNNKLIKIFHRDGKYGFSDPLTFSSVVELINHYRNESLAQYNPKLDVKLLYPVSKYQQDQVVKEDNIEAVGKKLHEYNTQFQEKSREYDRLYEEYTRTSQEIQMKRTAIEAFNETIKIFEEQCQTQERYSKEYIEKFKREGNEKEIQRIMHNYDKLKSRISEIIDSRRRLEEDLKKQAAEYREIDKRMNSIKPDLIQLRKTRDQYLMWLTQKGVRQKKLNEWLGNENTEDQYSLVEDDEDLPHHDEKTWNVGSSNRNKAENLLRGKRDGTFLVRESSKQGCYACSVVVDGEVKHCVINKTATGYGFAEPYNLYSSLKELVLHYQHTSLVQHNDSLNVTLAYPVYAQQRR
Test: TR-FRET assay of enzymatic activity of class I PI3K isoforms
Settings: read-out: IC50 (nM) for PI3K isoform δ (Table 3); TR-FRET; 2× Km ATP, 2 μM PIP2; incubated for 30 minutes at 25° C.
Reported IC50 values follow for various molecules
Answer format: numeric, nM implied, no suffix.

1. C[C@H](Nc1nc(N)nc(N)c1C#N)c1nc2cccc(S(=O)(=O)CCN3CCCC3)c2c(=O)n1-c1cccc(F)c1    2
2. Cc1nc(N)nc(N[C@@H](C)c2nc3cccc(Cl)c3c(=O)n2-c2ccccc2)c1I    0.6
3. C[C@H](Nc1nc(N)nc(N)c1C#N)c1nc2cccc(CCCC(=O)O)c2c(=O)n1-c1ccccc1    1

Request - read-out IC50 | tested on PI3K isoform δ (Homo sapiens (Human)) | molecule C[C@H](Nc1nc(Cl)nc(N)c1C#N)c1nc2cccc(Cl)c2c(=O)n1-c1ccccc1 4

# value lookup — system PI3K isoform δ (Homo sapiens (Human)), readout IC50, item N#Cc1c(N)nc(N)nc1N1CC[C@H]1c1nc2cccc(Cl)c2c(=O)n1-c1cc(F)cc(F)c1 110

PI3K isoform δ (Homo sapiens (Human)) / IC50 / Cc1nc(N)c(C#N)c(N[C@@H](C)c2nc3cccc(Cl)c3c(=O)n2-c2ccccc2)n1 : value? 10

I'm curious: which IC50 was measured for N#Cc1c(N)nc(N)nc1N1C[C@H](NC(=O)C(F)F)C[C@H]1c1nc2cccc(Cl)c2c(=O)n1-c1ccccc1 tested on PI3K isoform δ (Homo sapiens (Human))? 0.4

Record lookup: for PI3K isoform δ (Homo sapiens (Human)), what IC50 belongs to Cc1cccc2c(=O)n(-c3cc(F)cc(F)c3)c([C@@H]3CCCN3c3nc(N)nc(N)c3C#N)nc12 ? 12

Tell me reported IC50 for C[C@H](Nc1nc(N)nc(N)c1C#N)c1nc2cccc(OCCN3CCN(c4ccccc4)CC3)c2c(=O)n1-c1ccccc1 , tested with PI3K isoform δ (Homo sapiens (Human)). 4

Under PI3K isoform δ (Homo sapiens (Human)): IC50 value of N#Cc1c(N)nc(N)nc1N1C[C@H](NC(=O)CN)C[C@H]1c1nc2cccc(Cl)c2c(=O)n1-c1ccccc1 ? 64

Param readout= IC50; system= PI3K isoform δ (Homo sapiens (Human)); entry= Cc1nccn1CCOc1cccc2nc([C@H](C)Nc3nc(N)nc(N)c3C#N)n(-c3ccccc3)c(=O)c12 ; returns value. 85

Look up IC50 with PI3K isoform δ (Homo sapiens (Human)) for this molecule: C[C@H](Nc1nc(N)nc(N)c1C#N)c1nc2cccc(CCCN3CCCC3)c2c(=O)n1-c1cc(F)cc(F)c1 3

For the record N#Cc1c(N)nc(N)nc1N[C@H](c1nc2cccc(CCCN3CCCC3)c2c(=O)n1-c1ccccc1)C1CC1 , what value of IC50 is listed for PI3K isoform δ (Homo sapiens (Human))? 3

Find the measured IC50: item C[C@H](Nc1nc(N)nc(N)c1C#N)c1nc2cccc(OCCN3CCCC3)c2c(=O)n1-c1ccccc1 , target or system PI3K isoform δ (Homo sapiens (Human)). 10

----------
Let's look at some compounds and their measured IC50.
Target: PI3K isoform δ (Homo sapiens (Human))
Experiment: TR-FRET assay of enzymatic activity of class I PI3K isoforms
Conditions: read-out: IC50 (nM) for PI3K isoform δ (Table 2); TR-FRET; 2× Km ATP, 2 μM PIP2; incubated for 30 minutes at 25° C.
Please append the unit to your numeric answer.

Some solved entries appear below for comparison.
1) N#Cc1c(N)nc(N)nc1N[C@@H](c1ccccc1)c1nc2cccc(Cl)c2c(=O)n1-c1ccccc1 [Compound 3a]    0.3 nM
2) CN(C)C(=O)C[C@H](Nc1nc(N)nc(N)c1C#N)c1nc2cccc(Cl)c2c(=O)n1-c1cc(F)cc(F)c1 [Compound 9a]    61 nM

Reported IC50 for N#Cc1c(N)nc(N)nc1N[C@H](c1nc2ccc(F)c(C#N)c2c(=O)n1-c1ccccc1)C1CC1 [Compound 8a] : what is it? 2 nM

For the compound N#Cc1c(N)nc(N)nc1N[C@H](c1nc2ccc(F)c(C#N)c2c(=O)n1-c1cccc(F)c1)C1CC1 [Compound 7a] , what IC50 is on record? 6 nM

Name the recorded IC50 for N#Cc1c(N)nc(N)nc1N[C@H](c1nc2cccc(C#N)c2c(=O)n1-c1ccccc1)C1CC1 [Compound 1a] . 5 nM

What value of IC50 has been reported for the following compound? N#Cc1c(N)nc(N)nc1N[C@H](c1nc2cccc(Cl)c2c(=O)n1-c1cc(F)cc(F)c1)C1CC1 [Compound 13a] 1 nM

I'd like to know its IC50. The compound in question is CS(=O)(=O)c1cccc2nc([C@@H](Nc3nc(N)nc(N)c3C#N)C3CC3)n(-c3c(F)cccc3F)c(=O)c12 [Compound 6a] 41 nM

For the compound shown here, CN(C)C(=O)C[C@H](Nc1nc(N)nc(N)c1C#N)c1nc2cccc(Cl)c2c(=O)n1-c1ccccc1 [Compound 10a] , give the reported IC50. 2 nM

Need IC50, item Cc1cccc2nc([C@@H](Nc3nc(N)nc(N)c3C#N)C3CC3)n(-c3cc(F)cc(F)c3)c(=O)c12 [Compound 12a] 1 nM

Which IC50 value belongs to CS(=O)(=O)c1cccc2nc([C@@H](Nc3nc(N)nc(N)c3C#N)C3CC3)n(-c3cccc(F)c3)c(=O)c12 [Compound 5a] ? 5 nM

Name the recorded IC50 for CC(=O)c1c(N)nc(N)nc1N[C@@H](C)c1nc2cccc(Cl)c2c(=O)n1-c1cc(F)cc(F)c1 [Compound 18a] . 6 nM

# IC50 lookup, item Cc1cccc2nc([C@@H](Nc3nc(N)nc(N)c3C#N)C3CC3)n(-c3cc(F)cc(C#N)c3)c(=O)c12 [Compound 11a] 14 nM
